Hello, the source for this data is patent EP4620954A1, in case you need it.

# experiment-summary: In-vitro liver microsomal stability, human
# Format: in vitro ADME
# applied-conditions: human liver microsomes 0.5 mg/mL, 1 µM, NADPH 1 mM, 37 °C
property-measured: Remaining amount% at 60 min Human (%)
Output spec: scalar in %, unitless text.

Use the examples below as a reference point.
1) CC(C)NC(=O)O[C@@H]1CC[C@H](c2cc(Nc3ccc(N4CCN(C)CC4)cc3)n[nH]2)C1; 93.2
2) COCc1cc(C(=O)Nc2cc([C@H]3CC[C@@H](OC(=O)N(C)C4CCC(=C(F)F)CC4)C3)[nH]n2)n(C)n1 (some centres unmarked); 5.38
3) COCc1cc(C(=O)Nc2cc([C@H]3C[C@@H](F)[C@@H](OC(=O)NC(C)C)C3)[nH]n2)n(C)n1; 105
4) CC(C)NC(=O)O[C@@H]1CC[C@H](c2cc(NC(=O)c3cc(CS(C)(=O)=O)nn3C)n[nH]2)C1; 93.2

Turning now to a further record.
Any idea what Remaining amount% at 60 min Human was measured for CC1(C)CCN1C(=O)O[C@@H]1CC[C@H](c2cc(NC(=O)Cc3ccc(N4CCCC4=O)cc3)n[nH]2)C1 ?
15.4

---

Property: pIC50; scope: individual compounds
# system-under-test: CDK2/Cyclin E1 (Homo sapiens)
# Construct: purchased Invitrogen PV6296
# experiment-summary: CDK2 kinase antagonistic activity assay (TR-FRET)
# Assay type: biochemical
# applied-conditions: TR-FRET; peptide mix containing 10 µM ATP; 90 min at 23 °C; read-out: CDK2/Cyclin E1 IC50
Please note pIC50 is a logarithmic value: minus log10 of concentration in mol/L. Answer with that number alone.

1. CC1(C)CCN1C(=O)O[C@@H]1CC[C@H](c2cc(NC(=O)Cc3ccc(N4CCCC4=O)cc3)n[nH]2)C1 [Compound 24]; 8.59

Any idea what pIC50 was measured for C=C(C)c1ccncc1O[C@@H]1CC[C@H](c2cc(NC(=O)Cc3cccc(P(C)(C)=O)c3)n[nH]2)C1 [Compound 25] ?
8.51

Consider next the compound CCS(=O)(=O)Cc1cc(C(=O)Nc2cc([C@H]3CC[C@@H](OC(=O)NC(C)C)C3)[nH]n2)n(C)n1 [Compound 12] in the same way.
9.21

Consider next the compound CC(C)NC(=O)O[C@@H]1CC[C@H](c2cc(Nc3ccc(CN4CCN(C)CC4)c(F)c3)n[nH]2)C1 [Compound 134] in the same way.
8.67

Consider next the compound CC(C)NC(=O)O[C@@H]1CC[C@H](c2cc(Nc3ccc(N4CCN(CC(F)F)CC4)cc3)n[nH]2)C1 [Compound 127] in the same way.
7.90

Consider next the compound CCN1CCN(Cc2ccc(Nc3cc([C@H]4CC[C@@H](OC(=O)NC(C)C)C4)[nH]n3)cc2)CC1 [Compound 137] in the same way.
8.43

Consider next the compound CC(C)NC(=O)O[C@@H]1CC[C@H](c2cc(Nc3ccc(N4CCN(C)CC4)cc3)n[nH]2)C1 [Compound 9] in the same way.
8.36

Consider next the compound CC1(C)CCN1C(=O)O[C@@H]1CO[C@H](c2cc(NC(=O)Cc3cccc(P(C)(C)=O)c3)n[nH]2)C1 [Compound 30] in the same way.
8.09

Consider next the compound COCc1cc(C(=O)Nc2cc([C@H]3CC[C@@H](OC(=O)N4CC5(CCN(C)CC5)C4)C3)[nH]n2)n(C)n1 [Compound 10] in the same way.
8.06
